- PROTOCOL TEXT: inhibitors of MT1-MMP promoter transcription, cell-based, luciferase reporter, luminescence (AID 618);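 also: actives suppress MT1-MMP promoter-driven transcription so potencies describe inhibitors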
- EXPERIMENTAL PARAMETERS: MT1-MMP promoter luciferase reporter cells
The campaign covered roughly 87,000 compounds. About 540 (0.62%) were called active. No rule for the calls is given here. The full list was thinned out, with actives kept by preference. Potency and affinity values are given separately.
Valid outcomes are listed here; reply with one: active, inactive

Some entries whose results are on file:
| COMPOUND | QUALITATIVE LABEL |
| --- | --- |
| Cc1cc2nc(-c3cccc(NC(=O)c4ccc(Br)o4)c3C)oc2cc1C | inactive |
| C=CCn1c(SCc2c(C)noc2C)nc2ccccc2c1=O | active |

[ask] Record lookup: outcome of this test for C=CCn1c(SCc2c(C)noc2C)nc2cc(C(=O)O)ccc2c1=O ?
[reply] inactive

[ask] # repeat for O=C(Nc1ccc(F)cc1)c1ccccc1
[reply] inactive

[ask] # repeat for COc1ccc(NC(=O)N2CCCC2C(=O)NCc2ccc(F)cc2)cc1 (stereo unspecified)
[reply] inactive

----------
- PROTOCOL TEXT: inhibitors of MT1-MMP promoter transcription, cell-based, luciferase reporter, luminescence (AID 618);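 also: actives suppress MT1-MMP promoter-driven transcription so potencies describe inhibitors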
- EXPERIMENTAL PARAMETERS: MT1-MMP promoter luciferase reporter cells
About 540 (0.62%) of roughly 87,000 compounds were called active. How the calls were made is not given here. What follows is part of a selection rich in actives, with near analogues and random picks from the rest. Measured potencies and affinities stand elsewhere.
Valid outcomes are listed here; reply with one: True = active, False = inactive

| MOLECULE | QUALITATIVE LABEL |
| --- | --- |
| CSCC[C@H](NC(=O)CCn1nnc2ccccc2c1=O)C(=O)O | False |
| CCn1nc(C)c(NC(=O)CCCSc2nc(-c3ccco3)cc(C(F)(F)F)n2)c1C | False |
| COc1ccc(CC(=O)Nc2cc(C)ccn2)cc1 | False |
| CCC(=O)N1CCNC(=O)C1CC(=O)Nc1ccc(C)c(Cl)c1 (stereo unspecified) | False |

[ask] Record lookup: outcome of this test for O=C(c1cc(-c2ccc(Cl)cc2Cl)on1)N1CCOCC1 ?
[reply] True

[ask] # repeat for O=C(c1cc(-c2ccc(Cl)cc2Cl)on1)N1CCN(C(=O)c2ccco2)CC1
[reply] False

[ask] # repeat for Cc1cccc(C)c1NC(=O)Cn1c(CN2CCCCC2)nc2ccccc2c1=O
[reply] False

[ask] # repeat for Cc1ccc(C(=O)c2nocc2C(=O)c2cccs2)cc1
[reply] False

[ask] # repeat for O=C1c2ccccc2C(=O)c2c1oc(C(F)(F)F)c2C(=O)c1ccccc1
[reply] False

[ask] # repeat for Cn1c(=O)c2c(nc(NCc3cccnc3)n2Cc2cccc(C(F)(F)F)c2)n(C)c1=O
[reply] False

[ask] # repeat for O=C(O)Cc1ccc(C(=O)c2cccs2)s1
[reply] False

----------
- PROTOCOL TEXT: inhibitors of MT1-MMP promoter transcription, cell-based, luciferase reporter, luminescence (AID 618);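 also: actives suppress MT1-MMP promoter-driven transcription so potencies describe inhibitors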
- EXPERIMENTAL PARAMETERS: MT1-MMP promoter luciferase reporter cells
The campaign covered roughly 87,000 compounds. About 540 (0.62%) were called active. Many of the other results were omitted from the sample, so actives are more common in it than they were. Results with a measured potency or affinity are listed apart.
PROPERTY LABEL: outcome

Please review the entries below; each comes with its answer.
| COMPOUND | outcome |
| --- | --- |
| O=C(O)CSCC(=O)Nc1ccccc1 | inactive |
| COc1ccc(C)cc1S(=O)(=O)N(C)CC(=O)Nc1ccccc1 | inactive |
| O=C(NC1CC1)c1cc2c(s1)-c1ccccc1OC2 | inactive |
| Cc1ccc(NC2=NC(c3ccc(O)cc3)n3c(nc(C)cc3=O)N2)cc1 (configuration not stated) | inactive |
| Cc1nnc2sc(-c3ccc(NC(=O)c4cccnc4)cc3)nn12 | inactive |

[ask] Entry O=C(CSCCO)Nc1ccc(C2CCCCC2)cc1 : reported outcome = ?
[reply] inactive

[ask] # repeat for CCCn1nnc(NC(=O)c2cccc(Cl)c2)n1
[reply] inactive
